Consider the following compounds and their measured IC50 readings.
assay.target: wild-type human ALK cytoplasmic domain (amino acids 1058-1620) (Homo sapiens, UniProt Q9UM73)
Construct: The cytoplasmic domain (amino acids 1058-1620) of wild-type human ALK; GST (N); made in house; host or cells: SF9 insect cells
Sequence (Q9UM73 1058-1620): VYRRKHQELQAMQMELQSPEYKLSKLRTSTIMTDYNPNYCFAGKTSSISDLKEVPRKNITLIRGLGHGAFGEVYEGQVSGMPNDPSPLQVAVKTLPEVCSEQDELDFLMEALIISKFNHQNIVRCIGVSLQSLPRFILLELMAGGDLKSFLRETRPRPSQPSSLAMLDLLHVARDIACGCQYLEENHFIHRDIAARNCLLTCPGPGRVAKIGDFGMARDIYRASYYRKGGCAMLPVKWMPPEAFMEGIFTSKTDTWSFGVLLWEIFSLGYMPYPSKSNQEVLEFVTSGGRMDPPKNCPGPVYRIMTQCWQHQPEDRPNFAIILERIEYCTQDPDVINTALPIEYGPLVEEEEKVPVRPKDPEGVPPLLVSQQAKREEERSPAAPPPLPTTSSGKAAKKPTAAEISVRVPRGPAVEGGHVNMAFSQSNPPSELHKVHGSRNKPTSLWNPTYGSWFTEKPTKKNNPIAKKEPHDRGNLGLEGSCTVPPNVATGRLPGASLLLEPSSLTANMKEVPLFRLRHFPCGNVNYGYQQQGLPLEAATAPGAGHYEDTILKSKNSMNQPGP
experimental.details: ALK Inhibition in Enzyme Assay (Lance TR-FRET)
Format: biochemical
reported.endpoint: IC50

compound="COc1cc(Nc2nccc(N3CCC[C@H](C(=O)NCCCc4ccccc4)C3)n2)cc(OC)c1OC [Example 126]" result="5 to 10 µM"
compound="COc1cc(Nc2nccc(N3CCC[C@H](C(=O)NCc4ccc([N+](=O)[O-])cc4)C3)n2)cc(OC)c1OC [Example 71]" result="1 to 5 µM"
compound="COc1cc(Nc2nccc(N3CCC[C@H](C(=O)NCc4cccc(N5CCOCC5)c4)C3)n2)cc(OC)c1OC [Example 85]" result="< 0.05 µM"

----------
assay.target: wild-type human ALK cytoplasmic domain (amino acids 1058-1620) (Homo sapiens)
Construct: The cytoplasmic domain (amino acids 1058-1620) of wild-type human ALK; GST (N); made in house; host or cells: SF9 insect cells
experimental.details: ALK Inhibition in Enzyme Assay (Lance TR-FRET)
Format: biochemical
test.conditions: 2 nM enzyme, ATP at 40 μM (Km apparent), 90 minutes, mean of three replicates; read-out: ALK IC50
reported.endpoint: IC50

compound="COc1cc(Nc2nccc(N3CCC[C@H](C(=O)NC(C)c4ccc(O)cc4)C3)n2)cc(OC)c1OC (stereo partly drawn)" assay_target="wild-type human ALK cytoplasmic domain (amino acids 1058-1620) (Homo sapiens)" reported_endpoint=IC50 result="5000 to 10000 nM"
compound=COc1cc(Nc2nccc(N3CCC[C@H](C(=O)NCc4ccc(C)cc4)C3)n2)cc2c1OCCO2 assay_target="wild-type human ALK cytoplasmic domain (amino acids 1058-1620) (Homo sapiens)" reported_endpoint=IC50 result="100 to 1000 nM"
compound=COc1cc(Nc2nccc(N3CCC[C@H](C(=O)NCc4ccc(N(C)C)cc4)C3)n2)cc(OC)c1OC assay_target="wild-type human ALK cytoplasmic domain (amino acids 1058-1620) (Homo sapiens)" reported_endpoint=IC50 result="1000 to 5000 nM"
compound=COc1cc(Nc2nccc(N3CCC[C@H](C(=O)NCc4ccc(C)c(Cl)c4)C3)n2)cc(OC)c1OC assay_target="wild-type human ALK cytoplasmic domain (amino acids 1058-1620) (Homo sapiens)" reported_endpoint=IC50 result="100 to 1000 nM"
compound=COc1cc(Nc2nccc(N3CCC[C@H](C(=O)NCc4ccc(OC(C)C)cc4)C3)n2)cc(OC)c1OC assay_target="wild-type human ALK cytoplasmic domain (amino acids 1058-1620) (Homo sapiens)" reported_endpoint=IC50 result="50 to 100 nM"
compound="COc1cc(Nc2nccc(N3CCC[C@@H](C(=O)NCc4ccc(F)cc4)C3)n2)cc(OC)c1OC [Example 13]" assay_target="wild-type human ALK cytoplasmic domain (amino acids 1058-1620) (Homo sapiens)" reported_endpoint=IC50 result="1000 to 5000 nM"
compound=COc1cc(Nc2nccc(N3CCC[C@H](C(=O)NCc4ccc(Oc5ccccc5)cc4)C3)n2)cc(OC)c1OC assay_target="wild-type human ALK cytoplasmic domain (amino acids 1058-1620) (Homo sapiens)" reported_endpoint=IC50 result="50 to 100 nM"
compound=COc1cc(Nc2nccc(N3CCC[C@H](C(=O)NCc4ccc(C)cc4)C3)n2)cc(C(F)(F)F)c1 assay_target="wild-type human ALK cytoplasmic domain (amino acids 1058-1620) (Homo sapiens)" reported_endpoint=IC50 result="100 to 1000 nM"
compound=COc1cc(Nc2ncc(C)c(N3CCC[C@@H](C(=O)NCc4ccc(C)cc4)C3)n2)cc(OC)c1OC assay_target="wild-type human ALK cytoplasmic domain (amino acids 1058-1620) (Homo sapiens)" reported_endpoint=IC50 result="100 to 1000 nM"
compound=CC(=O)Nc1cccc(Nc2nccc(N3CCC[C@H](C(=O)NCc4ccc(C)cc4)C3)n2)c1 assay_target="wild-type human ALK cytoplasmic domain (amino acids 1058-1620) (Homo sapiens)" reported_endpoint=IC50 result="100 to 1000 nM"
compound=Cc1ccc(CNC(=O)[C@H]2CCCN(c3ccnc(Nc4cccc(C(F)(F)F)c4)n3)C2)cc1 assay_target="wild-type human ALK cytoplasmic domain (amino acids 1058-1620) (Homo sapiens)" reported_endpoint=IC50 result="1000 to 5000 nM"
compound=COc1cc(Nc2ncc(Cl)c(N3CCC[C@H](C(=O)NCc4ccc(C)cc4)C3)n2)cc(OC)c1OC assay_target="wild-type human ALK cytoplasmic domain (amino acids 1058-1620) (Homo sapiens)" reported_endpoint=IC50 result="100 to 1000 nM"
compound=COc1cc(Nc2nccc(N3CCC[C@H](C(=O)NCCc4ccc(Oc5ccccc5)cc4)C3)n2)cc(OC)c1OC assay_target="wild-type human ALK cytoplasmic domain (amino acids 1058-1620) (Homo sapiens)" reported_endpoint=IC50 result="100 to 1000 nM"
compound="COc1cc(Nc2nccc(N3CCC[C@H](C(=O)NC4CCc5ccccc54)C3)n2)cc(OC)c1OC (stereo partly drawn)" assay_target="wild-type human ALK cytoplasmic domain (amino acids 1058-1620) (Homo sapiens)" reported_endpoint=IC50 result="1000 to 5000 nM"
compound=Cc1ccc(CNC(=O)[C@H]2CCCN(c3ccnc(Nc4ccc(C(=O)N(C)C)cc4)n3)C2)cc1 assay_target="wild-type human ALK cytoplasmic domain (amino acids 1058-1620) (Homo sapiens)" reported_endpoint=IC50 result="1000 to 5000 nM"
compound=Cc1ccc(CNC(=O)[C@H]2CCCN(c3ccnc(Nc4cccc(CC(N)=O)c4)n3)C2)cc1 assay_target="wild-type human ALK cytoplasmic domain (amino acids 1058-1620) (Homo sapiens)" reported_endpoint=IC50 result="100 to 1000 nM"
compound=Cc1ccc(CNC(=O)[C@H]2CCCN(c3ccnc(Nc4cccc(C(=O)c5ccccc5)c4)n3)C2)cc1 assay_target="wild-type human ALK cytoplasmic domain (amino acids 1058-1620) (Homo sapiens)" reported_endpoint=IC50 result="100 to 1000 nM"
compound="COc1cc(Nc2nccc(N3CC(C(=O)NCc4ccc(C)cc4)CCC3C)n2)cc(OC)c1OC (mixture of isomers)" assay_target="wild-type human ALK cytoplasmic domain (amino acids 1058-1620) (Homo sapiens)" reported_endpoint=IC50 result="100 to 1000 nM"
compound=Cc1ccc(CNC(=O)[C@H]2CCCN(c3ccnc(Nc4cc(C(C)(C)C)cc(C(C)(C)C)c4)n3)C2)cc1 assay_target="wild-type human ALK cytoplasmic domain (amino acids 1058-1620) (Homo sapiens)" reported_endpoint=IC50 result="1000 to 5000 nM"
compound=Cc1ccc(CNC(=O)[C@H]2CCCN(c3ccnc(Nc4ccc(N5CCN(C)CC5)cc4)n3)C2)cc1 assay_target="wild-type human ALK cytoplasmic domain (amino acids 1058-1620) (Homo sapiens)" reported_endpoint=IC50 result="100 to 1000 nM"
compound=COc1ccc(CNC(=O)[C@H]2CCCN(c3ccnc(Nc4cc(OC)c(OC)c(OC)c4)n3)C2)cc1OC assay_target="wild-type human ALK cytoplasmic domain (amino acids 1058-1620) (Homo sapiens)" reported_endpoint=IC50 result="1000 to 5000 nM"
compound=Cc1ccc(CNC(=O)[C@H]2CCCN(c3ccnc(Nc4ccc(C#N)cc4)n3)C2)cc1 assay_target="wild-type human ALK cytoplasmic domain (amino acids 1058-1620) (Homo sapiens)" reported_endpoint=IC50 result="1000 to 5000 nM"
compound=CCN(CC)CCNC(=O)c1ccc(Nc2nccc(N3CCC[C@H](C(=O)NCc4ccc(C)cc4)C3)n2)cc1 assay_target="wild-type human ALK cytoplasmic domain (amino acids 1058-1620) (Homo sapiens)" reported_endpoint=IC50 result="100 to 1000 nM"
compound=Cc1ccc(CNC(=O)[C@H]2CCCN(c3ccnc(Nc4cc(F)cc(F)c4)n3)C2)cc1 assay_target="wild-type human ALK cytoplasmic domain (amino acids 1058-1620) (Homo sapiens)" reported_endpoint=IC50 result="1000 to 5000 nM"
compound=COc1cc(Nc2nccc(N3CCC[C@H](C(=O)NCc4cccc(-c5ccc(F)cc5)c4)C3)n2)cc(OC)c1OC assay_target="wild-type human ALK cytoplasmic domain (amino acids 1058-1620) (Homo sapiens)" reported_endpoint=IC50 result="< 50 nM"
compound=COc1cc(Nc2nccc(N3CCC[C@H](C(=O)NCc4ccc(C(C)(C)C)cc4)C3)n2)cc(OC)c1OC assay_target="wild-type human ALK cytoplasmic domain (amino acids 1058-1620) (Homo sapiens)" reported_endpoint=IC50 result="< 50 nM"
compound=COc1cc(Nc2nccc(N3CCC[C@H](C(=O)NCc4ccc(Br)cc4F)C3)n2)cc(OC)c1OC assay_target="wild-type human ALK cytoplasmic domain (amino acids 1058-1620) (Homo sapiens)" reported_endpoint=IC50 result="< 50 nM"
compound=COc1cc(Nc2nccc(N3CCC[C@H](C(=O)NCc4ccc(F)cc4F)C3)n2)cc(OC)c1OC assay_target="wild-type human ALK cytoplasmic domain (amino acids 1058-1620) (Homo sapiens)" reported_endpoint=IC50 result="50 to 100 nM"
compound=COc1cc(Nc2nccc(N3CCC[C@H](C(=O)NCc4ccc5c(c4)CCCN5C)C3)n2)cc(OC)c1OC assay_target="wild-type human ALK cytoplasmic domain (amino acids 1058-1620) (Homo sapiens)" reported_endpoint=IC50 result="1000 to 5000 nM"
compound=COc1ccccc1CNC(=O)[C@H]1CCCN(c2ccnc(Nc3cc(OC)c(OC)c(OC)c3)n2)C1 assay_target="wild-type human ALK cytoplasmic domain (amino acids 1058-1620) (Homo sapiens)" reported_endpoint=IC50 result="5000 to 10000 nM"
